target: recombinant human PIM1 (Homo sapiens (Human)); experiment: PIM-1 kinase activity in cell-free in vitro assay; assay type: biochemical; conditions: 500 nM compound, cell-free assay; read-out: PIM-1: % inh 500 nM
Sequence (P11309 whole entry): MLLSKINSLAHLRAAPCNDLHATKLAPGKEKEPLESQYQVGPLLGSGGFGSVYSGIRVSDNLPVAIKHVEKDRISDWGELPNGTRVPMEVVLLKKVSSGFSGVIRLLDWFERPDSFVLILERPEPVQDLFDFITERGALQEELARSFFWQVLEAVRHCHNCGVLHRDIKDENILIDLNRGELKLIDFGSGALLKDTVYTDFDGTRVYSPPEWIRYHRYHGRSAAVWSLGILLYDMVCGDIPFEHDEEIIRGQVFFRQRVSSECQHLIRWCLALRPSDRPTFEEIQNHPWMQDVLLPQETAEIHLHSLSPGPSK
QUANTITY MEASURED: inhibition at 0.5 µM (%)

# COMPOUND, MEASUREMENT UNITS, inhibition at 0.5 µM
data = [
    ("FC(F)(F)COc1nc2cc(-c3nnn[nH]3)ccc2c2sccc12", "%", 32.3),
    ("O=C(O)c1ccc2c(c1)nc(Nc1cccc3ccccc13)c1ccncc12", "%", 35.7),
]

(P) CN(C)c1ncc2c(n1)c(N(C)c1ccccc1)nc1cc(C(=O)O)ccc12
(Q) COC(=O)c1ccc2c(c1)nc(NC1CC1)c1nc(SCc3ccccc3Cl)ncc12 [drawing 1611]
Which of the two items, P and Q , has the greater recorded inhibition at 0.5 µM? Use the label to indicate which entry you chose.
P
(P: 12.2%, Q: -0.924%)

---

system: K-562; experiment: Cell proliferation modulatory activity, K-562; format: cell-based; settings: Homo sapiens, K562; K-562 cells
QUANTITY MEASURED: IC50

Some solved entries appear below for comparison.
# SUBSTANCE SMILES, IC50
records = [
    ("CN(C)CCNc1nc2cc(C#N)ccc2c2sc(Br)cc12", "0.719 µM"),
    ("N#Cc1ccc2c(c1)nc(Nc1cccc(F)c1)c1cscc12", "8.04 µM"),
    ("N#Cc1ccc2c(c1)nc(N1CCNC(=O)C1)c1ccsc12", "> 10 µM"),
]

Give the value of IC50 reported for the following: `FC(F)(F)c1cccc(Nc2nc3cc(-c4nnn[nH]4)ccc3c3cscc23)c1`
> 10 µM

Supply recorded IC50 for `CCCNc1nc2cc(-c3nnn[nH]3)ccc2c2sccc12` here.
> 10 µM

Return reported IC50. Input compound: `CC1(C)CC(Nc2nc3cc(-c4nnn[nH]4)ccc3c3sccc23)CC(C)(C)N1`
> 10 µM

Provide only the value of recorded IC50 for `COC(=O)c1ccc2c(c1)nc(NCCOC(C)C)c1ccncc12`
> 10 µM

Respond only with IC50 recorded for `COc1cc(Nc2nc3cc(C(=O)O)ccc3c3cnccc23)cc(OC)c1`
> 10 µM

Look up and report measured IC50 for this entry: `c1cc2c(N3CCC(N4CCCC4)CC3)nc3cc(-c4nnn[nH]4)ccc3c2s1`
> 10 µM

Write down IC50 measured for item `CSc1ncc2c(n1)c(Nc1ccccc1C)nc1cc(C(=O)O)ccc12`
> 10 µM

Item `N#Cc1ccc(Nc2nc3cc(C(=O)O)ccc3c3cnccc23)cc1` : provide IC50
> 10 µM

---

biological target: recombinant human CK2 (Homo sapiens (Human), UniProt P68400); assay: CK2 assay (cell-free, 33P-ATP filter plate); format: biochemical; settings: 500 nM compound, cell-free assay; read-out: CK2: % inh 500 nM
Sequence (P68400 whole entry): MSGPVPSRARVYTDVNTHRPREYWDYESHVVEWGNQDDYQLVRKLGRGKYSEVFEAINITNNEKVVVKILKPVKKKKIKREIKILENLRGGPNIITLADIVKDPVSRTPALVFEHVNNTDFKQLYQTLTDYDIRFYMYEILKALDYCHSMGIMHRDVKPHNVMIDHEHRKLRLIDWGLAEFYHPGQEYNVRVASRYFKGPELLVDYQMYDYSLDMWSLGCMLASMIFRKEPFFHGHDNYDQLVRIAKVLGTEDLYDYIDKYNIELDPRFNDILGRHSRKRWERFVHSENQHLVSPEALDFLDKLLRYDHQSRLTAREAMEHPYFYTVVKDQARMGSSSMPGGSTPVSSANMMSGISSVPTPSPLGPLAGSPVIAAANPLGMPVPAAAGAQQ
Sequence (P67870 whole entry partner): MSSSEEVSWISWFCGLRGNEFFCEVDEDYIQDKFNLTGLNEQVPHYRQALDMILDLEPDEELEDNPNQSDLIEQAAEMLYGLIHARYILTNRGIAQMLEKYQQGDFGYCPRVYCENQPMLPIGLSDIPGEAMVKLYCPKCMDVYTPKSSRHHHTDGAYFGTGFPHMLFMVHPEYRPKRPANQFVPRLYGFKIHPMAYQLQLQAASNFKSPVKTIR
QUANTITY MEASURED: inhibition at 0.5 µM (%)

# MOLECULE, MEASUREMENT UNITS, inhibition at 0.5 µM
data = [
    ("COC(=O)c1ccc2c(c1)nc(N(C)CCc1ccccn1)c1ccncc12", "%", -3.68),
    ("C#Cc1cccc(Nc2nc3cc(C(=O)O)ccc3c3ncccc23)c1", "%", 77.5),
    ("COc1ccc(Nc2nc3cc(C(=O)O)ccc3c3cnccc23)cc1OC", "%", 98.5),
    ("c1cc2c(NC3CCNCC3)nc3cc(-c4nnn[nH]4)ccc3c2s1", "%", -21.2),
    ("O=C(O)c1ccc2c(c1)nc(N1CCC(N3CCOCC3)CC1)c1ccncc12", "%", 90.5),
]

(a) Cc1nccn1CCNc1nc2cc(C#N)ccc2c2sccc12
(b) Clc1cccc(Nc2nc3cc(-c4nnn[nH]4)ccc3c3ccsc23)c1
// compare measured inhibition at 0.5 µM between a and b ; output the lower one Pick one; state its label.
a
